system.under.test: Luciferin 4-monooxygenase (Photinus pyralis) (UniProt P08659)
Sequence (P08659 whole entry, looked up): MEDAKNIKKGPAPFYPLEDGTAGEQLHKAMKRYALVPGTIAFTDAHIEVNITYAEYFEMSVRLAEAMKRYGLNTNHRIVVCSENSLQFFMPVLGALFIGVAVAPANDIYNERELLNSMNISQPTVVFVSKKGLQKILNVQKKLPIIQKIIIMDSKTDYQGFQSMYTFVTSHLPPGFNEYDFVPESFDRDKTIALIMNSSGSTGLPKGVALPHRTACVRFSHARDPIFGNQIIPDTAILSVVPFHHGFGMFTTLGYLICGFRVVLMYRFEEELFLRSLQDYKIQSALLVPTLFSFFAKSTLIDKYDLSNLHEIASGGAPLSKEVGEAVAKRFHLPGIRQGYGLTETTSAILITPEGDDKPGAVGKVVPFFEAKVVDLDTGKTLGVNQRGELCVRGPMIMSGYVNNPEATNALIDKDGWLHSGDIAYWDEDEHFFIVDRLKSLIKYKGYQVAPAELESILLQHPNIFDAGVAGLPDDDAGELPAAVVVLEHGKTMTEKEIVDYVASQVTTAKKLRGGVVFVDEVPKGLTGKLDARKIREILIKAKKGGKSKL
test.description: qHTS profiling assay for firefly luciferase inhibitor/activator using purifed enzyme and Km concentrations of substrates (counterscreen for miR-21 project); also: nearly all actives have a fitted effect of over 55% in size
condition.parameters: purified FLuc, luminescence inhibition; series mostly up to 57.5 µM
Out of some 360,000 compounds screened, about 25,000 (6.9%) were called active. About 9% were inconclusive and are not listed. Calls follow the shape of the dose curve; as a rule, active = well fitted inhibition curve with a large enough effect; inconclusive = small, poorly fitted or top-dose-only effect; inactive = flat fitted curve, though single readings scatter. This excerpt belongs to a sample that is enriched for actives.
Your answer must be one of the following: active, inactive

Ask: Given Cc1ccc(C)c(OCC(=O)N2CCN(C(=O)c3ccco3)CC2)c1 , state the outcome it received in this test.
Result: inactive

Ask: Check CNC(=O)CN1C(=O)c2cccnc2Sc2ccccc21 too.
Result: inactive

Ask: Check CCOc1ccc(C(O)Cc2nc3ccccc3n2C)cc1 (stereo not drawn) too.
Result: inactive

Ask: Check Cc1ccc2c(=O)c(C(=O)c3ccc(F)cc3)cn(CC(=O)NC3CCCCC3)c2n1 too.
Result: inactive

Ask: Check CCCCCCCCCCCCCCCC(=O)OC/C=C(C)/C=C/C=C(C)/C=C/C1=C(C)CCCC1(C)C too.
Result: inactive

Ask: Check COc1cc(NC(=O)c2noc3c2CSc2ccccc2-3)cc(OC)c1OC too.
Result: inactive

Ask: Check CCOC(=O)c1ccc(CN(Cc2ccccc2)S(=O)(=O)c2ccc(Cl)cc2)cc1 too.
Result: inactive

Ask: Check Cc1ccc2nc(N3CCN(C(=O)c4ccco4)CC3)sc2c1 too.
Result: active

Ask: Check Cc1ccc(OCC(=O)Nc2ccc(N3CCN(C(=O)c4ccco4)CC3)cc2)c(C)c1 too.
Result: inactive

Ask: Check COCc1nc2ccccc2n1Cc1ccccc1Br too.
Result: inactive

Ask: Check CCn1c(=O)n(CC)c2cc(N3CCCC3)c(NC(=O)c3ccccc3Br)cc21 too.
Result: inactive

Ask: Check COc1ccccc1NC(=O)c1oc2ccccc2c1NC(=O)C(C)C too.
Result: inactive

Ask: Check CC(C)=C1SC(N2CCN(c3cccc(C)c3)CC2)=NC1=O too.
Result: inactive

Ask: Check Cn1c(CNC(=O)C(C)(C)C)nc2ccccc21 too.
Result: inactive

Ask: Check O=c1onc(-c2cccs2)n1Cc1ccccc1 too.
Result: inactive

Ask: Check Cc1c(NS(=O)(=O)c2cc(C(=O)NCCc3ccc(F)cc3)cc(Cl)c2Cl)c(=O)n(-c2ccccc2)n1C too.
Result: inactive

Ask: Check Cc1ccc(CN2CCc3nc(N4CCN(C)CC4)ncc3C2)cc1 too.
Result: inactive

Ask: Check S=C(NNC(=S)NC1CC2C=CC1C2)NC1CC2C=CC1C2 (stereo not drawn) too.
Result: inactive

Ask: Check Cc1ccc(OCc2nc3ccccc3n2C)cc1 too.
Result: active

Ask: Check S=C(NNC(=S)NC1CC2CCC1C2)NC1CC2C=CC1C2 (stereo not drawn) too.
Result: inactive

Ask: Check Cn1nc(-c2ccccc2)c2cc([N+](=O)[O-])ccc21 too.
Result: inactive

Ask: Check Cc1cc(CO)nn1-c1ccc([N+](=O)[O-])cc1 too.
Result: inactive

Ask: Check Cn1cncc1COC(=O)c1ccc(Cl)cc1 too.
Result: inactive

---

system.under.test: Luciferin 4-monooxygenase (Photinus pyralis) (UniProt P08659)
test.description: qHTS profiling assay for firefly luciferase inhibitor/activator using purifed enzyme and Km concentrations of substrates (counterscreen for miR-21 project); also: nearly all actives have a fitted effect of over 55% in size
condition.parameters: purified FLuc, luminescence inhibition; series mostly up to 57.5 µM
About 25,000 (6.9%) of roughly 360,000 compounds were called active. Roughly 9% stayed inconclusive and do not appear here. The call rests on the fitted dose curve; in most records, active means well fitted inhibition curve with a large enough effect; inconclusive means small, poorly fitted or top-dose-only effect; inactive means flat fitted curve, though single readings scatter. The sample holds actives, similar compounds and a random draw of the others, so the mix is not that of the screen.
Your answer must be one of the following: active, inactive

Ask: Given CCOc1ccc(C(CCc2ccccc2)NC(=O)c2ccc(OC)c(OC)c2)cc1OCC (stereo not drawn) , state the outcome it received in this test.
Result: inactive

Ask: Check COc1ccc(S(=O)(=O)c2c(Nc3ccc(C)cc3)sc(C(=O)c3ccc(C)cc3)c2N)cc1 too.
Result: inactive

Ask: Check O=C(Nc1ccccc1Cl)Nc1cccc2cccnc12 too.
Result: active

Ask: Check CCc1noc(C)c1C(=O)Nc1nc2ccc(OC)cc2s1 too.
Result: active

Ask: Check CC(=O)c1cccc(NC(=O)[C@@H](NC(N)=O)C(C)C)c1 too.
Result: inactive

Ask: Check Cc1ccccc1N1CCN(Cc2nc(Cc3ccccc3F)no2)CC1 too.
Result: inactive

Ask: Check COc1c(Cl)cc(Cl)cc1C(=O)Nc1cccc2cccnc12 too.
Result: inactive

Ask: Check CCSc1nnc(-c2cc3c(s2)-c2ccccc2CC3)o1 too.
Result: active

Ask: Check O=C(CSc1nnc(-c2ccccc2O)o1)NC1CCCCC1 too.
Result: inactive

Ask: Check CCCCN(C)S(=O)(=O)c1ccc(C(=O)Nc2sc3c(c2C(N)=O)CC(C)(C)NC3(C)C)cc1 too.
Result: inactive

Ask: Check Cc1c(NC(=O)Nc2ccccc2Cl)sc(=S)n1C too.
Result: inactive

Ask: Check COc1ccc(S(=O)(=O)N2CCN(C(=O)NC3CCCCC3)CC2)cc1 too.
Result: inactive

Ask: Check CCc1noc(C)c1C(=O)Nc1nc(-c2ccccc2)cs1 too.
Result: active

Ask: Check Cc1cc(/C=C2/SC(=O)N(CC(=O)OC(C)C)C2=O)c(C)n1C too.
Result: active

Ask: Check COc1ccc2oc(=N)c(C(=O)Nc3ccc(Br)cc3)cc2c1 too.
Result: inactive

Ask: Check COc1ccc(CNC(=O)c2ccc(Br)s2)cc1OC too.
Result: inactive

Ask: Check C/C(=C\C(=O)c1ccccc1)Nc1cccc(O)c1 too.
Result: active

Ask: Check O=C(Nc1cccc2cccnc12)c1cccc(Cl)c1 too.
Result: active

Ask: Check COc1ccc2nc(NC(=O)c3ccc(Br)s3)sc2c1 too.
Result: active

Ask: Check O=C(CN1CCCCCC1)NCCN1C(=O)S/C(=C\c2ccccc2Cl)C1=O too.
Result: inactive

Ask: Check O=C(NCc1cccc(CNC(=O)Nc2cccc(O)c2)c1)Nc1cccc(O)c1 too.
Result: inactive

Ask: Check Cc1oc2ccc(O)c(CN3CCC(C)CC3)c2c1C(=O)Nc1ccccc1 too.
Result: inactive

Ask: Check O=C(CSc1ccccc1)Nc1ccc(C(=O)Nc2cccc(O)c2)cc1 too.
Result: inactive

---

system.under.test: Luciferin 4-monooxygenase (Photinus pyralis) (UniProt P08659)
test.description: qHTS profiling assay for firefly luciferase inhibitor/activator using purifed enzyme and Km concentrations of substrates (counterscreen for miR-21 project); also: nearly all actives have a fitted effect of over 55% in size
condition.parameters: purified FLuc, luminescence inhibition; series mostly up to 57.5 µM
Out of some 360,000 compounds screened, about 25,000 (6.9%) were called active. Roughly 9% stayed inconclusive and do not appear here. Calls come from the whole dose curve; as a rule, active = well fitted inhibition curve with a large enough effect; inconclusive = small, poorly fitted or top-dose-only effect; inactive = flat fitted curve, though single readings scatter. The sample holds actives, similar compounds and a random draw of the others, so the mix is not that of the screen.
Your answer must be one of the following: label 1 = active, label 0 = inactive

Ask: Given CCn1cc(C(=O)N2CCN(c3cc(Cl)ccc3C)CC2)c(=O)c2cc(S(=O)(=O)N3CCCC3)ccc21 , state the outcome it received in this test.
Result: label 0

Ask: Check O=C(NCCC1=CCCCC1)c1ccc2c(c1)N(Cc1ccccc1F)C(=O)c1ccccc1S2(=O)=O too.
Result: label 0

Ask: Check CN(C(=O)CSc1nnc(Nc2ccccc2)s1)C1CCS(=O)(=O)C1 (configuration not stated) too.
Result: label 1

Ask: Check O=C(Nc1ccc(OCC(=O)N2CCOCC2)cc1)c1cc(F)c(F)cc1Cl too.
Result: label 1

Ask: Check O=C(NCc1ccccn1)c1cc(-c2ccccc2Cl)on1 too.
Result: label 1

Ask: Check COc1ccc(-c2csc(-c3c(N)c(C(=O)c4ccc(OC)c(OC)c4)n4ccccc34)n2)cc1 too.
Result: label 0

Ask: Check O=C(COC(=O)CCCN1C(=O)c2cccc3cccc(c23)C1=O)NC1CCS(=O)(=O)C1 (configuration not stated) too.
Result: label 0

Ask: Check COc1ccc(-c2csc(-c3cccs3)n2)cc1OC too.
Result: label 1

Ask: Check Cc1c(C(=O)NCc2ccccc2Br)oc2ccc3c(c12)C(=O)CC(C)(C)O3 too.
Result: label 1

Ask: Check CC(=O)Nc1ccc(S(=O)(=O)NC(C)C(=O)OCCOc2ccc(F)cc2)cc1 (configuration not stated) too.
Result: label 0

Ask: Check COC(=O)c1c(NC(=O)C(=O)N2CCCCC2)sc2c1CC(C)(C)OC2 too.
Result: label 0

Ask: Check O=C(COc1ccc(S(=O)(=O)Nc2cccc(C(F)(F)F)c2)cc1)N1CCOCC1 too.
Result: label 0

Ask: Check CCOC(=O)N1CCN(C(=O)C(=O)Nc2sc3c(c2C#N)CC(C)(C)OC3)CC1 too.
Result: label 1

Ask: Check O=C(Nc1cccc(OCC(=O)N2CCOCC2)c1)C1CCCCC1 too.
Result: label 0

Ask: Check O=C(c1cccc(Cl)c1)N1CCN(CCc2ccncc2)CC1 too.
Result: label 0

Ask: Check CCN(C(=O)COc1cccnc1[N+](=O)[O-])C1CCS(=O)(=O)C1 (configuration not stated) too.
Result: label 0

Ask: Check CC[n+]1c(C)n(-c2ccccc2)c2ccc(NC(C)=O)cc21 too.
Result: label 0

Ask: Check COC(=O)c1ccc(NC(=O)c2cc(S(=O)(=O)N3CCC(C)CC3)cn2C)cc1 too.
Result: label 0

Ask: Check O=C(NCc1ccccc1)c1cc(-c2cccc(Cl)c2)on1 too.
Result: label 0

Ask: Check O=C(c1cccc(Br)c1)N1CCN(Cc2cc(=O)n3nc(-c4ccccc4)sc3n2)CC1 too.
Result: label 0

Ask: Check COc1ccc(-c2onc(C)c2C)cc1S(=O)(=O)NCC1CCN(Cc2cccc(F)c2)CC1 too.
Result: label 0

Ask: Check CCS(=O)(=O)c1ncc(N(Cc2ccc(F)cc2)Cc2ccco2)c(C(=O)Nc2cc(C)ccc2C)n1 too.
Result: label 0

Ask: Check CC1(C)Cc2c(sc(NC(=O)C(=O)N3CCOCC3)c2C#N)CO1 too.
Result: label 0

Ask: Check O=C(NCCN1CCOCC1)c1cccc(S(=O)(=O)Nc2ccc(F)cc2)c1 too.
Result: label 0

Ask: Check Cc1ccn2cc(-c3nonc3C)cc2c1 too.
Result: label 1

Ask: Check COc1cccc(NC(=O)CN(C)C(=O)CSCc2nc3scc(-c4cccs4)c3c(=O)[nH]2)c1 too.
Result: label 0

Ask: Check CCN(CC)C(=O)Oc1ccc(OC(=O)N(CC)CC)cc1 too.
Result: label 0

Ask: Check CSc1cccc(NC(=O)CN2C(=O)CCc3cc(S(=O)(=O)N4CCCCC4)ccc32)c1 too.
Result: label 0

Ask: Check COc1ccc(-c2nc(CN3CCC(C(=O)NCc4ccccc4)CC3)c(C)o2)cc1OC too.
Result: label 0

Ask: Check COc1ccc(CCNC(=O)CCc2c(C)nc3c(c(C)nn3-c3ccc(C)c(C)c3)c2C)c(OC)c1OC too.
Result: label 0

Ask: Check O=C(Nc1ccccc1C(=O)O)c1cc(S(=O)(=O)N2CCCCC2)cs1 too.
Result: label 1

Ask: Check Cc1ccccc1NC(=O)c1cc(S(=O)(=O)N2CCOCC2)cs1 too.
Result: label 0

Ask: Check N=c1oc2ccccc2cc1C(=O)NCc1ccccc1 too.
Result: label 1

Ask: Check COc1ccc(S(=O)(=O)NCC(=O)NCc2cc(=O)n(C)c(=O)n2C)cc1F too.
Result: label 0

Ask: Check Cc1ccccc1NC(=O)c1cc2c([nH]c1=O)CC(C)(C)CC2=O too.
Result: label 0

Ask: Check Cc1c(O)c(C)c2c(c1O)C(=O)C[C@@H](c1ccccc1)O2 too.
Result: label 0

Ask: Check O=C(CSc1nc2c(c(=O)[nH]1)CN(Cc1ccc3c(c1)OCO3)CC2)Nc1cc(F)ccc1F too.
Result: label 0

Ask: Check Cc1ccc(Cn2c(=O)n(Cc3nc(-c4ccccc4)no3)c(=O)c3cc4c(cc32)OCO4)cc1 too.
Result: label 0

Ask: Check COc1ccc(CNC(=O)COCc2cc(-c3cccs3)on2)cc1OC too.
Result: label 0

Ask: Check CCOC(=O)c1scc(-c2ccc(C)cc2)c1S(=O)(=O)Nc1cc(C)ccc1C too.
Result: label 0

Ask: Check CCCCNC(=O)c1cc(-c2ccc(Cl)c(Cl)c2)on1 too.
Result: label 0

Ask: Check N=c1oc2ccccc2cc1C(=O)N/N=C/c1ccccc1 too.
Result: label 1
